Exercise: state measured CORN phytotoxicity rating (crop damage) for each of the compounds provided.
Tested on: field corn (Zea mays L., var. Dekalb 535, CORN)
experimentNotes: Post-emerge test, crop safety
Assay type: in vivo
experimentalConditions: post-emerge, 63 g ai/ha, 14 days after application, rating scale 0-100
One number for each entry.

{"compound": "CCOC(=O)C(C)Oc1ccc(-n2c(=O)cc(C(F)(F)F)n(C)c2=O)c(NC(=O)c2ccc3ccccc3c2)c1 (stereo not drawn) [2-146]", "CORN phytotoxicity rating (crop damage)": 10}
{"compound": "Cn1c(C(F)(F)F)cc(=O)n(-c2ccc(C#N)cc2NC(=O)c2ccc3ccccc3c2)c1=O [2-140]", "CORN phytotoxicity rating (crop damage)": 10}

The record that follows has no CORN phytotoxicity rating (crop damage) shown yet.
# lookup: CORN phytotoxicity rating (crop damage) of COc1c(Cl)cc(F)c(-n2c(=O)cc(C(F)(F)F)n(C)c2=O)c1NC(=O)COc1ccc(Cl)cc1Cl [2-154]
10

====

Test system: field corn (Zea mays L., var. Dekalb 535, CORN)
experimentNotes: Post-emerge test, crop safety
Type: in vivo
experimentalConditions: 250 g ai/ha; post-emerge; 14 days after application; rating scale 0-100
valueType: Post-emerge Herbicidal Activity CORN (crop damage rating)
Give bare numbers.

Some entries whose results are on file:
{"compound": "CCOC(=O)C(Cl)Cc1cc(Cl)cc(F)c1-n1c(=O)cc(C(F)(F)F)n(C)c1=O (stereo not shown)", "measuredOn": "field corn (Zea mays L., var. Dekalb 535, CORN)", "assayResult": 60}
{"compound": "COc1c(Cl)cc(F)c(-n2c(=O)cc(C(F)(F)F)n(C)c2=O)c1NN=Cc1ccc(F)cc1F", "measuredOn": "field corn (Zea mays L., var. Dekalb 535, CORN)", "assayResult": 85}
{"compound": "COc1c(Cl)cc(F)c(-n2c(=O)cc(C(F)(F)F)n(C)c2=O)c1NN=CCc1ccccc1", "measuredOn": "field corn (Zea mays L., var. Dekalb 535, CORN)", "assayResult": 90}
{"compound": "COc1c(Cl)cc(F)c(-n2c(=O)cc(C(F)(F)F)n(C)c2=O)c1NNC(=O)C1CC1", "measuredOn": "field corn (Zea mays L., var. Dekalb 535, CORN)", "assayResult": 80}

// each listed compound needs a value for Post-emerge Herbicidal Activity CORN (crop damage rating)
1. COc1cc(Cl)cc(Cl)c1-n1c(=O)cc(C(F)(F)F)n(C)c1=O
2. COc1c(Cl)cc(F)c(-n2c(=O)cc(C(F)(F)F)n(C)c2=O)c1NNC(=O)c1ccccc1
3. C=CC=NNc1c(OC)c(Cl)cc(F)c1-n1c(=O)cc(C(F)(F)F)n(C)c1=O
4. CCOC(=O)N(C)C(=O)NNc1c(OC)c(Cl)cc(F)c1-n1c(=O)cc(C(F)(F)F)n(C)c1=O
5. COc1c(Cl)cc(F)c(-n2c(=O)cc(C(F)(F)F)n(C)c2=O)c1Sc1ccc2ccccc2c1
6. COc1c(Cl)cc(F)c(-n2c(=O)cc(C(F)(F)F)n(C)c2=O)c1NN=CCCSC

10
80
65
70
0
65

For each of the compounds below, note its Post-emerge Herbicidal Activity CORN (crop damage rating).
1. COc1c(Cl)cc(F)c(-n2c(=O)cc(C(F)(F)F)n(C)c2=O)c1SC(C)C
2. CCOC(=O)CC(C)=NNc1c(OC)c(Cl)cc(F)c1-n1c(=O)cc(C(F)(F)F)n(C)c1=O
3. CCOC(=O)C(Cl)Cc1c(OC)c(Cl)cc(F)c1-c1nn(C)c(C(F)(F)F)c1Cl (stereo not shown)

[0, 45, 30]

====

Test system: field corn (Zea mays L., var. Dekalb 535, CORN)
experimentNotes: Pre-emerge test, crop safety
Assay type: in vivo
experimentalConditions: 63 g ai/ha; rated 14 days after application; 0 = no damage, 100 = complete death
Can you tell me Pre-emerge phytotoxicity rating (0-100), crop damage, CORN for the items I'm about to list?
Give bare numbers.

{"smilesRepr": "COc1c(Cl)cc(F)c(-n2c(=O)cc(C(F)(F)F)n(C)c2=O)c1NC(=O)C(=O)c1ccccc1", "assayResult": 0}

Each molecule below has a recorded value; state its Pre-emerge phytotoxicity rating (0-100), crop damage, CORN.
1. COc1c(Cl)cc(F)c(-n2c(=O)cc(C(F)(F)F)n(C)c2=O)c1NC(=O)c1ccc(Br)cc1
2. COc1c(Cl)cc(F)c(-n2c(=O)cc(C(F)(F)F)n(N)c2=O)c1NC(=O)c1ccc2ccccc2c1
3. COc1c(Cl)cc(F)c(-n2c(=O)cc(C(F)(F)F)n(C)c2=O)c1NC(=O)CCc1ccccc1
4. COc1c(Cl)cc(F)c(-n2c(=O)cc(C(F)(F)F)n(C)c2=O)c1NC(=O)c1cnc2ccccc2n1
5. Cn1c(C(F)(F)F)cc(=O)n(-c2c(F)cc(Cl)c(OCC#N)c2N(C(=O)c2ccc(F)cc2F)C(=O)c2ccc(F)cc2F)c1=O

1: 10; 2: 0; 3: 95; 4: 10; 5: 0

====

I'd be grateful if you could share measured Post-emerge Herbicidal Activity ABUTH (phytotoxicity rating) for these entries.
Test system: velvetleaf (Abutilon theophrasti, ABUTH)
experimentNotes: Post-emerge test, greenhouse herbicide activity screening
Type: in vivo
experimentalConditions: 250 g ai/ha; post-emerge; 14 days after application; rating scale 0-100
Method: A standard greenhouse herbicide activity screening system was used to evaluate the herbicidal efficacy and crop safety of these test compounds. […] At 14 days after application of the test materials, phytotoxicity ratings were recorded. […]
Numbers only.

Study these solved cases before continuing.
{"compound": "COc1c(Cl)cc(F)c(-n2c(=O)cc(C(F)(F)F)n(C)c2=O)c1NN=CCc1ccccc1", "assayResult": 100}
{"compound": "CCCOC(=O)C(Cl)Cc1c(OCC)c(Cl)cc(F)c1-n1c(=O)cc(C(F)(F)F)n(C)c1=O (stereo not shown) [14-65]", "assayResult": 100}
{"compound": "CCOC(=O)N(C)C(=O)NNc1c(OC)c(Cl)cc(F)c1-n1c(=O)cc(C(F)(F)F)n(C)c1=O", "assayResult": 100}

Attention now shifts to the item below.
Checklist item: Post-emerge Herbicidal Activity ABUTH (phytotoxicity rating) tested on velvetleaf (Abutilon theophrasti, ABUTH), entry `COc1c(Cl)cc(F)c(-n2c(=O)cc(C(F)(F)F)n(C)c2=O)c1SC` , value?
70

====

System: large crabgrass (Digitaria sanguinalis, DIGSA)
experimentNotes: Post-emerge test, greenhouse herbicide activity screening
Assay type: in vivo
experimentalConditions: post-emerge, 63 g ai/ha, 14 days after application, rating scale 0-100
valueType: phytotoxicity rating DIGSA
Answers are plain numbers.

Example entries and their recorded answers appear below.
{"molecule": "COc1c(Cl)cc(F)c(-n2c(=O)cc(C(F)(F)F)n(C)c2=O)c1NC(=O)COC(C)=O [2-117]", "assayResult": 0}
{"molecule": "COc1c(Cl)cc(F)c(-n2c(=O)cc(C(F)(F)F)n(C)c2=O)c1NC(=O)c1ccc(C(F)(F)F)cc1 [2-33]", "assayResult": 0}
{"molecule": "COc1c(Cl)cc(F)c(-n2c(=O)cc(C(F)(F)F)n(C)c2=O)c1NC(=O)CCc1ccccc1 [2-86]", "assayResult": 30}

// input: 5 molecules below; output: phytotoxicity rating DIGSA for each
1. Cn1c(C(F)(F)F)cc(=O)n(-c2c(F)cc(Cl)c(OCC#N)c2NC(=O)CCc2ccccc2)c1=O [2-87]
2. COc1c(Cl)cc(F)c(-n2c(=O)cc(C(F)(F)F)n(C)c2=O)c1NC(=O)c1c(F)c(F)c(F)c(F)c1F [2-52]
3. COc1c(Cl)cc(F)c(-n2c(=O)cc(C(F)(F)F)n(C)c2=O)c1NC(=O)C=Cc1ccccc1Cl [2-82]
4. COc1c(Cl)cc(F)c(-n2c(=O)cc(C(F)(F)F)n(N)c2=O)c1NC(=O)c1ccc2ccccc2c1 [2-77]
5. COc1c(Cl)cc(F)c(-n2c(=O)cc(C(F)(F)F)n(C)c2=O)c1NC(=O)COCc1ccccc1 [2-89]

1: 10; 2: 0; 3: 0; 4: 0; 5: 0

// input: 7 molecules below; output: phytotoxicity rating DIGSA for each
1. COC(=O)Nc1c(OC)c(Cl)cc(F)c1-n1c(=O)cc(C(F)(F)F)n(C)c1=O [Compound 4-1]
2. COc1c(Cl)cc(F)c(-n2c(=O)cc(C(F)(F)F)n(C)c2=O)c1N(C(=O)c1ccc(Cl)nc1)C(=O)c1ccc(Cl)nc1 [2-100]
3. CCOC(=O)C(C)Oc1c(Cl)cc(F)c(-n2c(=O)cc(C(F)(F)F)n(C)c2=O)c1NC(=O)c1ccc2ccccc2c1 (centres unmarked) [2-191]
4. COc1c(Cl)cc(F)c(-n2c(=O)cc(C(F)(F)F)n(C)c2=O)c1NC(=O)Nc1ccccc1 [Compound 3-4]
5. Cc1c(Cl)cc(F)c(-n2c(=O)cc(C(F)(F)F)n(C)c2=O)c1NC(=O)OCCc1ccccc1 [4-57]
6. COc1c(Cl)cc(F)c(-n2c(=O)cc(C(F)(F)F)n(C)c2=O)c1NC(=O)c1ccccc1F [2-39]
7. COc1c(Cl)cc(F)c(-n2c(=O)cc(C(F)(F)F)n(C)c2=O)c1N(C(=O)COc1ccccc1)C(=O)COc1ccccc1 [2-120]

1. 0
2. 0
3. 0
4. 0
5. 10
6. 0
7. 10

Please state, for each entry, its recorded phytotoxicity rating DIGSA.
1. Nn1c(C(F)(F)F)cc(=O)n(-c2c(F)cc(Cl)c(O)c2NC(=O)c2ccc3ccccc3c2)c1=O [Compound 2-192]
2. COc1c(Cl)cc(F)c(-n2c(=O)cc(C(F)(F)F)n(C)c2=O)c1NC(=O)OCc1ccc(OC(F)(F)F)cc1 [4-45]

1: 0; 2: 10
